// data source = patent US20210395406A1

assay: Water solubility of cross-linkers
READOUT NAME: solubility

Query: solubility; subject: O=C1CCN(C(=O)C(=O)N2CCC(=O)CC2)CC1
60 mg/mL

Query: solubility; subject: O=C1CCN(C(=O)c2ccc(C(=O)N3CCC(=O)CC3)cc2)CC1
0.5 mg/mL
